target or system: Peroxisome proliferator-activated receptor gamma (Homo sapiens) (UniProt P37231)
Sequence (P37231 whole entry, looked up): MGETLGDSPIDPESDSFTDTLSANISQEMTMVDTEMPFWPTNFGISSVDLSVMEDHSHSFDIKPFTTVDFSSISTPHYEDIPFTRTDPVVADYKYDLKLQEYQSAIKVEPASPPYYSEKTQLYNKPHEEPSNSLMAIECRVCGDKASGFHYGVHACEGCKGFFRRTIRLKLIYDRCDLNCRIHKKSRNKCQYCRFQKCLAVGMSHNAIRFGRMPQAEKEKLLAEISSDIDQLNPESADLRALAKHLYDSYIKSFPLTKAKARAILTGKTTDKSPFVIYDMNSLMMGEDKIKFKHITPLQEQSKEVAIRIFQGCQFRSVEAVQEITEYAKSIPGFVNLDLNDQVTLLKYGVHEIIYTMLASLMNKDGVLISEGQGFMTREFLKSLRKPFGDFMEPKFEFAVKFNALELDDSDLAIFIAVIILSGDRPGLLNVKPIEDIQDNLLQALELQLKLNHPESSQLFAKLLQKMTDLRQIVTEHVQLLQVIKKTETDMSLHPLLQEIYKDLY
assay method text: ATG_hPPARg_XSP2: Attagene TRANS-FACTORIAL Multi-Species (XSP2) HepG2 Assay for human Peroxisome Proliferator-activated Receptor gamma (PPARg) (AID 2283829);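 also: actives raise reporter mRNA above DMSO so AC50 reflects PPARg activation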
Method: ATG_XSP2_multi-species_TRANS is a cell-based, multiplexed assay created by modifying the existing Attagene TRANS-FACTORIAL system to include a panel of nuclear receptors from some or all the following species: human (Homo sapiens), mouse (Mus musculus), frog (Xenopus laevis), zebrafish (Danio rerio), chicken (Gallus gallus), and turtle (Chrysemys picta). The ECOTOX-FACTORIAL format uses HepG2, a human liver cell line, with measurements taken at 24 hours after chemical dosing in a 24-well plate. […]
Results filed as inconclusive are left out. The source made the active and inactive calls. The calls were made as follows: active = hit-call score of the fitted dose curve at least 0.9, where 1 is the maximum; inconclusive = response in the unintended direction; inactive = score below 0.9.
Pick one and only one: active, inactive

compound=Clc1ccc(C(c2ccc(Cl)cc2)C(Cl)(Cl)Cl)cc1 class_label=inactive

Query: In this assay, the call recorded for CC(C)(C)C(O)(CCc1ccc(Cl)cc1)Cn1cncn1 (centres undefined) was what?
Response: inactive

Query: What was the test verdict on `C[C@]12C=CC3=C4CCC(=O)C=C4CC[C@H]3[C@@H]1CC[C@@H]2O` ?
Response: inactive

Query: Just curious, what result did `CCCCCOC(=O)c1ccccc1C(=O)OCCCCC` get here?
Response: active

###

Read-out: MYC, MYC (gene 4609)
assay method text: LTEA_HepaRG_MYC: Life Technologies and Expression Analysis (LTEA) Assay for MYC using HepaRG (AID 2283518)
run conditions: mRNA level, 48 h; actives raise or lower the signal
Activity calls are given as the source filed them. Rule for the calls: active = hit-call score of the fitted dose curve at least 0.9, where 1 is the maximum; inactive = score below 0.9.
Your answer must be one of the following: true for active, false for inactive

Previously resolved entries follow.
compound="ClC1=C(Cl)C2(Cl)C3C(Cl)C=CC3C1(Cl)C2(Cl)Cl (configuration not stated)" class_label=true
compound="CCC(C)c1ccc(O)cc1 (configuration not stated)" class_label=false
compound=c1ccc(NNc2ccccc2)cc1 class_label=false
compound=[O-][Cl+]O class_label=false
compound=Oc1ccc2ccc3cccc4ccc1c2c34 class_label=false

Query: Dear colleague, could you share the recorded outcome for `CCC[CH2][Sn]([Cl])([CH2]CCC)[CH2]CCC` when you have a moment?
Response: false

Query: Could you please tell me the result logged for `CC(C)(OOC(C)(C)c1ccccc1)c1ccccc1` in this assay?
Response: false

###

target or system: human CYP2D6, CYP2D6 (gene 1565)
assay method text: NVS_ADME_hCYP2D6: NovaScreen (NVS) CYP450-related Enzyme Activity (ADME) Assay for human CYP2D6 (AID 2283107)
Activity calls are given as the source filed them. How the source made its calls: active means hit-call score of the fitted dose curve at least 0.9, where 1 is the maximum; inconclusive means response in the unintended direction; inactive means score below 0.9.
Would you mind answering with one of these outcomes? active, inactive

Solved cases below.
input_smiles=CCCCCCCCn1sccc1=O class_label=active
input_smiles=Nc1ccc(N=Nc2ccccc2)cc1 class_label=inactive
input_smiles=O=C(N[C@H](c1ccccc1)[C@@H]1CN2CCC1CC2)c1c(Cl)ccc(C(F)(F)F)c1Cl class_label=active
input_smiles=O=[N+]([O-])C(Br)(CO)CO class_label=inactive

Now for another entry.
Query: Hi team, can someone confirm the assay call for `Nc1ccc(Oc2ccc(N)cc2)cc1` ?
Response: inactive

###

assay method text: ATG_AP_1_CIS: Attagene CIS-FACTORIAL HepG2 Assay for human Activator Protein 1 (AP-1) (AID 2282931)
run conditions: HepG2 Attagene cis-factorial AP-1 reporter mRNA; actives raise or lower the signal
Calls of active or inactive are those of the source. Rule for the calls: active = hit-call score of the fitted dose curve at least 0.9, where 1 is the maximum; inactive = score below 0.9.
Give one outcome, nothing more. List: true for active, false for inactive

Example entries and their recorded answers appear below.
input_smiles=CCOC(=O)[C@]1(c2ccccc2)Oc2ccccc2[C@@H]1N class_label=true
input_smiles=CCN(CC)N=O class_label=false
input_smiles=Cn1cc(-c2ccccc2)c(=O)c(-c2cccc(C(F)(F)F)c2)c1 class_label=false

Query: Tell me the recorded outcome of this test for `CC(C)(O)c1cnn2c(-c3ccc(F)c(-c4c(F)cccc4C#N)c3)cnc2n1` .
Response: true

Query: Write down the call the test reported for this molecule. Item: `ClCCOCCCl`
Response: false

Query: Dear colleague, could you share the recorded outcome for `Cc1ccc([N+](=O)[O-])cc1` when you have a moment?
Response: false

Query: Each molecule tested received a call. Report the one for `Nc1ccc(Cc2ccc(N)cc2)cc1` .
Response: false

Query: Lab log entry: `O=C1CCCO1` — outcome as called in the assay?
Response: false

Query: Give the logged outcome of this assay for the following molecule: `OCCCl`
Response: false

Query: Test call, this molecule: `Brc1ccc(Oc2ccccc2)cc1`
Response: false

Query: Please state the recorded outcome for this molecule: `Nc1ccc(Cl)cc1N`
Response: true

###

assay method text: CCTE_Shafer_MEA_acute_burst_duration_mean: CCTE's Neural Acute Assay for Mean Burst Duration, Shafer Lab (AID 2284014);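 also: hits are decreases in mean burst duration relative to DMSO controls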
Activity calls are given as the source filed them. The calls were made as follows: active = hit-call score of the fitted dose curve at least 0.9, where 1 is the maximum; inactive = score below 0.9.
Write down the outcome that applies. Available outcomes: True for active, False for inactive

These recorded examples may help you get a feel for the data.
molecule=ClC1=C(Cl)[C@]2(Cl)[C@H]3[C@H]([C@@H]4C=C[C@H]3C4)[C@@]1(Cl)C2(Cl)Cl class_label=False
molecule=[Cl-].[Cl-].[Hg+2] class_label=True
molecule=O=P(OCCCl)(OCCCl)OCCCl class_label=False
molecule=O=Cc1ccco1 class_label=False
molecule=c1ccc(N=Nc2ccccc2)cc1 class_label=False

Query: Tell me the assay call for `O=[N+]([O-])c1ccc(Oc2ccc(Cl)cc2Cl)cc1` please.
Response: False

Query: How did this test come out for `O=C(N[C@H](c1ccccc1)[C@@H]1CN2CCC1CC2)c1c(Cl)ccc(C(F)(F)F)c1Cl` ?
Response: False

Query: # outcome recorded in this test, key = `Clc1ccc(C(c2ccc(Cl)cc2)C(Cl)(Cl)Cl)cc1`
Response: False

###

assay method text: CCTE_Shafer_MEA_dev_inter_network_spike_interval_mean: CCTE's Neural Network Formation Assay for Mean Inter-network Spike Interval, Shafer Lab (AID 2284047)
Active and inactive are the calls of the source. How the source made its calls: active means hit-call score of the fitted dose curve at least 0.9, where 1 is the maximum; inactive means score below 0.9.
The reply should name one outcome from active, inactive

Previously resolved entries follow.
input_smiles=CC(C)COC(=O)c1ccccc1C(=O)OCC(C)C class_label=inactive
input_smiles=Nc1cc(Cl)cc(C(=O)O)c1Cl class_label=inactive
input_smiles=OCCOCCO class_label=active

Query: # fetch the recorded call for `[Cl-].[Cl-].[Hg+2]` here
Response: inactive

Query: Can you look up the reported call for `CNC(=O)Oc1cccc2c1OC(C)(C)C2` for me?
Response: inactive

Query: What outcome does the record of this test show for `C1=Cc2cccc3cccc1c23` ?
Response: inactive

Query: What was the test verdict on `O=P(OCCCl)(OCCCl)OCCCl` ?
Response: inactive

Query: Tell me the recorded outcome of this test for `ClC1=C(Cl)[C@]2(Cl)[C@H]3[C@H]([C@@H]4C=C[C@H]3C4)[C@@]1(Cl)C2(Cl)Cl` .
Response: inactive

###

Read-out: Monokine induced gamma interferon (MIG), CXCL9 (gene 4283)
assay method text: BSK_3C_MIG: BioMAP Diversity Plus: 3C Assay for Monokine induced gamma interferon (MIG) Biomarker Activity (AID 2283021);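 as to AC50: MIG protein level measured by immunoassay in the treated endothelial cultures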
run conditions: primary human endothelial cells (HUVEC); actives raise or lower the signal
Activity calls are given as the source filed them. Rule for the calls: active = hit-call score of the fitted dose curve at least 0.9, where 1 is the maximum; inactive = score below 0.9.
quantity kind: AC50

molecule=c1ccc(N=Nc2ccccc2)cc1 quantity_kind=AC50 observed=inactive
molecule=OCCOCCO quantity_kind=AC50 observed=inactive
molecule=C=CCc1ccc2c(c1)OCO2 quantity_kind=AC50 observed=inactive
molecule=Oc1ccc2ccc3cccc4ccc1c2c34 quantity_kind=AC50 observed="37.6 µM (active)"
molecule=Cc1cc(N=Nc2ccccc2C)ccc1N quantity_kind=AC50 observed=inactive
molecule="CCCCC(CC)COC(=O)c1ccc(C(=O)OCC(CC)CCCC)c(C(=O)OCC(CC)CCCC)c1 (stereo not given)" quantity_kind=AC50 observed=inactive
molecule=O=[N+]([O-])C(Br)(CO)CO quantity_kind=AC50 observed="34.9 µM (active)"
molecule=CCCCCCCCn1sccc1=O quantity_kind=AC50 observed="11.6 µM (active)"

Query: Quick one: AC50 for `O=C(Oc1ccc(Br)cc1)N1CCN2CCC1CC2` ?
Response: inactive

Query: Which AC50 is reported for this molecule? `CC(C)(O)c1cnn2c(-c3ccc(F)c(-c4c(F)cccc4C#N)c3)cnc2n1`
Response: inactive

Query: AC50; subject: `COP(=S)(OC)SCN1C(=O)c2ccccc2C1=O`
Response: inactive

Query: Field request: AC50 | item: `Nc1ccc(Cc2ccc(N)cc2)cc1`
Response: inactive

Query: // query AC50 value for entry `CCCCOC(=O)c1ccccc1C(=O)OCc1ccccc1`
Response: inactive

Query: Quick one: AC50 of `CC(C)COC(=O)c1ccccc1C(=O)OCC(C)C` ?
Response: inactive

Query: Data request, read-out AC50, for `CC(C)(C)OOC(=O)c1ccccc1`
Response: inactive

Query: AC50 lookup needed for `Nc1ccc(N=Nc2ccccc2)cc1` , thanks.
Response: inactive

Query: Which AC50 is reported for this molecule? `C1=Cc2cccc3cccc1c23`
Response: inactive

Query: Reported AC50, molecule `CC(C)N(Cc1ccccc1)C(=O)C(C)(C)C` : ____
Response: inactive

Query: For `Clc1ccccc1Cl` , what is its reported AC50?
Response: inactive

Query: Which value of AC50 has been reported for `O=[N+]([O-])c1ccc(Oc2ccc(Cl)cc2Cl)cc1` in the records?
Response: inactive

Query: So what's the measured AC50 for this one? `Clc1ccc(C(c2ccc(Cl)cc2)C(Cl)(Cl)Cl)cc1`
Response: 34.5 µM (active)

Query: Fill in: AC50 of c1ccc(C2CO2)cc1 (stereo not given) is ___
Response: inactive

Query: Given `CCCCCOC(=O)c1ccccc1C(=O)OCCCCC` , state its recorded AC50.
Response: inactive

Query: Which AC50 value is on record for `Nc1ccc([N+](=O)[O-])cc1` ?
Response: inactive

Query: Returns the measured AC50 for the input molecule. Input: `Cn1cc(-c2ccccc2)c(=O)c(-c2cccc(C(F)(F)F)c2)c1`
Response: inactive

Query: // AC50 lookup, key: `CC(C)(OOC(C)(C)c1ccccc1)c1ccccc1`
Response: 29.3 µM (active)

Query: Value lookup for AC50; key = `O=Cc1ccco1`
Response: inactive

Query: What does the record list as AC50 for `O=C(N[C@H](c1ccccc1)[C@@H]1CN2CCC1CC2)c1c(Cl)ccc(C(F)(F)F)c1Cl` ?
Response: inactive

Query: GET /values?readout=AC50&item= `ClCCOCCCl`
Response: inactive

Query: Consider the molecule `Brc1ccc(Oc2ccccc2)cc1` and give its measured AC50.
Response: inactive

Query: State the recorded AC50 for this entry: `N#CC(Br)Br`
Response: inactive

Query: Reported AC50, molecule `Cc1ccc(N=C=O)cc1N=C=O` : ____
Response: inactive
